test system: SNB-75 CNS; test: NCI-60 one-dose screen, 48 h (100 = growth as untreated, 0 = no growth, -100 = all killed); details: 10 µM unless noted
About 83,000 compounds went through this panel and 20% of them were active in at least one assay; those are over-represented in the sample as a whole.
Assign class by growth: not lower than 80% means yes; lower than 80% means no.

These solved cases illustrate the format of a correct answer.
MOLECULE	CATEGORY LABEL
CCOC(=O)Nc1ccc2c(ccn2C(=O)c2cccc(F)c2)c1	no
Cc1cc(NS(=O)(=O)c2ccc(NC(=O)CSc3nc4ccccc4c(=O)n3-c3ccccc3)cc2)no1	no
O=c1c2cc(-c3ccc(F)cc3F)ccc2n(Nc2ccccc2)c(=O)n1-c1cccc(C(F)(F)F)c1	no
Cc1c(C(=O)/C=C/c2ccc(Cl)cc2)nnn1-c1ccc2oc(=O)ccc2c1	yes
O=C(/C=C/c1cccc(F)c1)c1cccc(OCCCOc2cccc(C(=O)/C=C/c3cccc(F)c3)c2)c1	yes

Query: Hello, I need to know if `CN(C)S(=O)(=O)c1ccc(-c2nc(C(Cl)Cl)nc3cc(-c4ccccc4)nn23)cc1` has measured growth not below 80%. Thanks!
Result: yes

Query: Item `Cc1ccccc1N1CCN(C2=C(Cl)C(=O)c3ncccc3C2=O)CC1` with growth of 80% or above?
Result: yes

Query: Please tell me: is the molecule `CN1CCN(CCNc2nc(-c3cccc(NS(=O)(=O)c4cccc5c(N(C)C)cccc45)c3)cs2)CC1` at or over 80% in terms of growth?
Result: no

Query: Threshold query (growth >= 80%) on `O=C(CCCCCCNC(=O)C(O)(O)C(F)(F)F)Nc1ccc(-c2ccccc2)cc1`
Result: no

Query: Is growth for `COC(=O)CCSC1=C(C)C(=O)c2ccccc2C1=O` at or above 80%?
Result: yes

====

tested on: T-47D breast; assay: NCI-60 one-dose screen, 48 h (100 = growth as untreated, 0 = no growth, -100 = all killed); details: 10 µM unless noted
The panel holds about 83,000 compounds, 20% with a hit somewhere; the sample as a whole holds those more often.
MEASUREMENT KIND: growth (%)
Numeric answer only, unit % assumed.

// solved cases for growth follow
MOLECULAR STRING	growth / %
Clc1ccc2c(N/N=C/c3c[nH]c4ccccc34)ccnc2c1	-54.5
CC1=C(C)C(=O)C(Nc2cccc(C(=O)OC(C)(C)C)c2)=C(Cl)C1=O	4.99
CCc1nnc(NC(=O)c2cc(-c3ccc(Cl)cc3Cl)oc2C)s1	61.7
Cn1cc(-c2nc(N)nnc2-c2c[nH]c3ccc(Br)cc23)c2cc(F)ccc21	74.8
CC(C)Sc1nc(-c2ccccc2)c(C#N)c(N2CCOCC2)n1	68.5

growth recorded for this compound, `N#C/C(=C\c1ccc(-c2ccc(Cl)cc2)o1)C(=O)Nc1ncc(Cc2ccc(Br)cc2)s1` , is 18.7

growth reported for this compound `O=C(CCCCCCNC(=O)c1csc(Br)n1)NO` : 6.1

====

test system: DU-145 prostate; assay: NCI-60 one-dose screen, 48 h (100 = growth as untreated, 0 = no growth, -100 = all killed); details: 10 µM unless noted
Compounds without any hit were thinned out: in the full panel of roughly 83,000, 20% have a hit.
This section presents molecules with their documented growth values.
Output spec: scalar in %, unitless text.

Reference set (4 entries):
MOLECULE	UNITS OF MEASURE	NUMERIC VALUE
CC(C)(C)Nc1nc2c(OCCc3ccccc3)cccn2c1-c1ccc([N+](=O)[O-])cc1	%	86.2
CC(=O)Nc1nc(C)c(-c2csc(Nc3ccccc3)n2)s1	%	30
Cc1[nH]c(C(=O)Nc2ccccc2OCc2cccc(C(=O)NCCN)c2)cc1Cl	%	36.5
CCCCN1C(=O)/C(=c2\sc3n(c2=O)C2C(NN=3)N(CC)C(=O)N2CC)c2cc(C)ccc21 (stereo not given)	%	98.7

Query molecule follows.
What the record says about `CCOC(=O)c1c(NC(=O)c2cccc(C(F)(F)F)c2)sc2c1CCC(=O)C2` : growth is 94.8

====

test system: HOP-92 NSCLC; test: NCI-60 one-dose screen, 48 h (100 = growth as untreated, 0 = no growth, -100 = all killed); conditions: 10 µM unless noted
This is part of a sample that, as a whole, favours compounds with a hit. Of some 83,000 tested, about 20% had one in any assay.
We use 40% as the dividing line for growth: on or above the line is label 1, below is label 0.

Below, 5 compounds whose answers are already recorded.
COMPOUND	TARGET OR TEST SYSTEM	CATEGORY LABEL
CC(Nc1c(C#N)cnc2ccc(-c3cncc(O)c3)cc12)c1ccccc1 (stereo not given)	HOP-92 NSCLC	label 0
Nc1cc(C(=O)N/N=C\c2ccc(OC(F)F)c(OC3CCCC3)c2)nn1CC(O)c1ccccc1 (stereo not given)	HOP-92 NSCLC	label 1
C#Cc1nc(C(=O)NCCCCCCC(=O)NO)cs1	HOP-92 NSCLC	label 0
CC1=C(C)C(=O)C(Nc2ccc(C)cc2)=C(Br)C1=O	HOP-92 NSCLC	label 0
O=C(/C=C/c1ccc(Cl)c(Cl)c1)Nc1ncc(Cc2ccc(Cl)c(Cl)c2)s1	HOP-92 NSCLC	label 1

Query: Determine whether measured growth meets or exceeds 40% for NC1C2CCC1CN(c1cnc(C(=O)Nc3cc(F)cc4cccnc34)cn1)C2 (stereo not given)
Result: label 1

Query: Does the compound `C#CCN(C)CCCOc1ccc(NCc2ccc(C(=O)NO)cc2)cc1Cl` have recorded growth that is 40% or more?
Result: label 0

Query: Hi, just wondering whether CCOC(=O)C1=C(C)NC(C)=C(C(=O)OC(C)C)C1c1cccc(C#N)c1 (stereo not given) shows growth of 40% or higher.
Result: label 1

====

system: SW-620 colon; assay: NCI-60 one-dose screen, 48 h (100 = growth as untreated, 0 = no growth, -100 = all killed); conditions: 10 µM unless noted
About 83,000 compounds went through this panel and 20% of them were active in at least one assay; those are over-represented in the sample as a whole.
# reported growth; entries follow
Output spec: scalar in %, unitless text.

Value of measured growth for the entry `O=C(CSc1nnc(-c2ccc(Cl)cc2)n1-c1ccccc1)Nc1ccc(Cl)cc1` : 58.6

growth in this record for `CSc1ccc(C(=NNS(=O)(=O)c2ccc(C)cc2)c2ccc(Cl)cc2)cc1` : 102

The compound `NS(=O)(=O)c1ccc(Nc2nc(N/N=C/c3ccc4c(c3)OCO4)nc(Nc3ccccc3)n2)cc1` showed growth equal to 49.8

Given item `Nc1ccc(Nc2ncnc3sc4c(c23)CCN(Cc2ccccc2)C4)cc1` , the value recorded as its growth is 99.7

According to the records, this compound `Cc1ccsc1[C@H]1c2[nH]c3ccccc3c2C[C@H]2C(=O)N(CCCCCCC(=O)NO)CC(=O)N12` displays growth of 82.5

====

Item-by-item account of growth
tested on: NCI-H226 lung; assay: NCI-60 one-dose screen, 48 h (100 = growth as untreated, 0 = no growth, -100 = all killed); conditions: 10 µM unless noted
The panel holds about 83,000 compounds, 20% with a hit somewhere; the sample as a whole holds those more often. Calls of active or inactive are those of the source. How the source made its calls: active means growth percent below 10; inactive means the rest.

For orientation, consider the following solved cases.
COMPOUND	growth
COc1ccc(Cn2cc(C#N)c(N)c2C(C)=O)cc1	101% (inactive)
CCC1=Cc2c(OC)cccc2OC12C=Cc1c(OC)cccc1O2 (stereo not given)	58.3% (inactive)
CS(=O)(=O)c1ccc(/C(=N/N=C(N)N)c2ccc(Cl)cc2)cc1	95.5% (inactive)
Cc1ccc2c(n1)C(=O)C(Cl)=C(Nc1ccccc1C(=O)OC(C)(C)C)C2=O	74.9% (inactive)
C(=N\Nc1nc(N/N=C/c2ccc3c(c2)OCO3)nc(N2CCCCC2)n1)/c1ccc2c(c1)OCO2	101% (inactive)

// returns growth for `C#C[C@]1(O)CC[C@H]2[C@@H]3CC=C4c5sc(Nc6ccc(C)cn6)nc5CC[C@]4(C)[C@H]3CC[C@@]21C` with NCI-H226 lung; value = 11.5% (inactive)

Log: NCI-H226 lung, compound `NS(=O)(=O)c1nnc(/N=C/c2c(O)[nH]c3ccccc23)s1` , growth = 95% (inactive)

Readout growth for `O=C(CSc1cc[n+](CCCCO)c2ccccc12)n1ccc2ccccc21` , test system NCI-H226 lung, was 89.6% (inactive)

NCI-H226 lung growth of `C#Cc1nc(C(=O)NCCCCCCC(=O)NO)cs1` is 39.1% (inactive)

The recorded growth with NCI-H226 lung for `CCNC(=O)Oc1ccc(/C(=C(/C)c2ccc(OC)cc2)c2ccc(OCCN3CCCCCC3)cc2)cc1` was 87.4% (inactive)

====

tested on: OVCAR-5 ovarian; assay: NCI-60 one-dose screen, 48 h (100 = growth as untreated, 0 = no growth, -100 = all killed); conditions: 10 µM unless noted
The panel holds about 83,000 compounds, 20% with a hit somewhere; the sample as a whole holds those more often.
The molecules listed here are annotated with their growth.
Write it as a number; the unit % goes unstated.

Summary for this molecule, `CC(=C(c1ccc(OCCN(C)C)cc1)c1ccc(OCCN(C)C)cc1)c1ccc(Cl)cc1` : growth is -69

Value of measured growth for the entry `C[C@H](Nc1ncnc2ccc(-c3cnc(Cl)c(NS(C)(=O)=O)c3)cc12)c1ccccc1` : -14.9

Recorded growth (molecule `N#Cc1cccc(-c2cc(-c3ccc4c(c3)OCCO4)[nH]n2)c1` ): 71.8

Note to self: growth recorded for `CC[C@]12C=CCN3CC[C@@]4(c5ccc(OC)cc5N(C)[C@H]4[C@@](O)(C(=O)OC)[C@@H]1OC(=O)CCN1CCc4ccccc4C1)[C@@H]32` was 96.3

Lab book: growth of `O=C(CSc1nc2ccccc2c(=O)n1CCc1ccccc1)Nc1ccc(S(=O)(=O)Nc2ccc(Cl)nn2)cc1` noted as 95.8

So, `O=C(CCCCCCNC(=O)C(O)(O)C(F)(F)F)Nc1ncc(-c2ccccc2)s1` ? Its growth was -0.912

The recorded growth for entry `C/C(=N\NC(=O)Nc1ccccc1)c1nnn(-c2ccc([N+](=O)[O-])cc2)c1C` equals 112

# molecule `Clc1cccc(/C=N/Nc2nc(N/N=C/c3cccc(Cl)c3)nc(N3CCCCC3)n2)c1` ; its growth = 110

# molecule `COc1cc(/C=N\NC(=O)c2ccc3nc(-c4ccc(Br)cc4)[nH]c3c2)cc(OC)c1OC` ; its growth = 119

Record `COc1cc2oc(-c3cccc(NC(=O)[C@@H](N)C(C)C)c3)cc(=O)c2c(OC)c1OC` , field growth: 103

Looking up `O=C(/C=C/c1csc(Br)n1)NO` , I found its growth recorded as 10.7

// `O=C(CCCCCCN1CC(=O)N2[C@@H](C3CC3)c3[nH]c4ccccc4c3C[C@H]2C1=O)NO` : growth value = 71.8

Entry `Fc1ccc2nc(-c3cnn4cccnc34)sc2c1` , growth reported as 101

// recorded growth for CCOC(=O)C1=C(C)NC(C)=C(C(=O)OC(C)C)C1c1cccc(C#N)c1 (stereo not given) : 99.1

Lookup result for `Cn1c(SCC(=O)c2ccco2)nc2ccccc2c1=O` ; measured growth: 111

Value of measured growth for the entry `O=C(Nc1ccc(N=Cc2c(O)[nH]c3ccccc23)cc1)Nc1ccc(S(=O)(=O)Nc2ncccn2)cc1` : 130

Per the record, COc1cccc2c1C=CC1(O2)Oc2cccc(OC)c2C=C1C (stereo not given) has growth of 29.6

Reported growth ( `CC(C)(O)c1cncc(-c2ccc3ncc(C#N)c(N4CCc5cc(F)c(Cl)cc54)c3c2)c1` ) = 16.7

Per the records, this molecule ( `C#CCOc1cccc(/C(N)=N/C(N)=N/c2nc3ccccc3s2)c1` ) has growth equal to 111

Recorded growth (molecule CCCCN1C(=O)/C(=c2\sc3n(c2=O)C2C(NN=3)N(CC)C(=O)N2CC)c2cc(C)ccc21 (stereo not given) ): 96.1
